These entries and their values trace back to the supplement of paper PMC10307832.

# Tested on: NCI-H2126
# Assay Explanation: relative viability (nuclei count vs DMSO), 5 days (fraction); higher = more cells survive
# Condition Info: first compound 0.01 µM
Quick list: relative viability per entry.
Measured Endpoint: relative viability

INSERT INTO measurements (compound, measurement_target, observed_measurement) VALUES
  ('CC(C)Oc1cc(Nc2nc(N[C@@H](C)c3ccc(F)cn3)ncc2Cl)n[nH]1 [AZ23] + CC(=O)Nc1cccc(-n2c(=O)n(C3CC3)c(=O)c3c(Nc4ccc(I)cc4F)n(C)c(=O)c(C)c32)c1 [Trametinib] (partner 0.02 µM)', 'NCI-H2126', 0.574),
  ('CC(C)Oc1cc(Nc2nc(N[C@@H](C)c3ccc(F)cn3)ncc2Cl)n[nH]1 [AZ23] + C[C@@H](Oc1cc(-c2cnn(C3CCNCC3)c2)cnc1N)c1c(Cl)ccc(F)c1Cl [Crizotinib] (partner 1 µM)', 'NCI-H2126', 1.24),
  ('CC(C)Oc1cc(Nc2nc(N[C@@H](C)c3ccc(F)cn3)ncc2Cl)n[nH]1 [AZ23] + CS(=O)(=O)CCNCc1ccc(-c2ccc3ncnc(Nc4ccc(OCc5cccc(F)c5)c(Cl)c4)c3c2)o1 [Lapatinib] (partner 2 µM)', 'NCI-H2126', 0.838),
  ('CC(C)Oc1cc(Nc2nc(N[C@@H](C)c3ccc(F)cn3)ncc2Cl)n[nH]1 [AZ23] + Cc1cc(Nc2cc(N3CCN(C)CC3)nc(Sc3ccc(NC(=O)C4CC4)cc3)n2)n[nH]1 [Tozasertib] (partner 0.1 µM)', 'NCI-H2126', 0.923),
  ('CC(C)Oc1cc(Nc2nc(N[C@@H](C)c3ccc(F)cn3)ncc2Cl)n[nH]1 [AZ23] + CC1(C)CCC(c2ccc(Cl)cc2)=C(CN2CCN(c3ccc(C(=O)NS(=O)(=O)c4ccc(N[C@H](CCN5CCOCC5)CSc5ccccc5)c(S(=O)(=O)C(F)(F)F)c4)cc3)CC2)C1 [Navitoclax] (partner 0.5 µM)', 'NCI-H2126', 0.835),
  ('CC(C)Oc1cc(Nc2nc(N[C@@H](C)c3ccc(F)cn3)ncc2Cl)n[nH]1 [AZ23] + O=C(CCCCCCC(=O)Nc1ccccc1)NO [Vorinostat] (partner 1 µM)', 'NCI-H2126', 0.776),
  ('CC(C)Oc1cc(Nc2nc(N[C@@H](C)c3ccc(F)cn3)ncc2Cl)n[nH]1 [AZ23] + CC(=O)c1c(C)c2cnc(Nc3ccc(N4CCNCC4)cn3)nc2n(C2CCCC2)c1=O [Palbociclib] (partner 0.5 µM)', 'NCI-H2126', 0.332),
  ('CC(C)Oc1cc(Nc2nc(N[C@@H](C)c3ccc(F)cn3)ncc2Cl)n[nH]1 [AZ23] + Cc1nc(Nc2ncc(C(=O)Nc3c(C)cccc3Cl)s2)cc(N2CCN(CCO)CC2)n1 [Dasatinib] (partner 0.075 µM)', 'NCI-H2126', 0.573),
  ('CC(C)Oc1cc(Nc2nc(N[C@@H](C)c3ccc(F)cn3)ncc2Cl)n[nH]1 [AZ23] + CC(C)C[C@H](NC(=O)[C@H](Cc1ccccc1)NC(=O)c1cnccn1)B(O)O [Bortezomib] (partner 0.002 µM)', 'NCI-H2126', 1.18);

###

Each entry below carries its recorded relative viability.
# Tested on: NCI-H2085
# Assay Explanation: relative viability (nuclei count vs DMSO), 5 days (fraction); higher = more cells survive
# Condition Info: first compound 0.3162 µM
Measured Endpoint: relative viability

INSERT INTO measurements (compound, measurement_target, observed_measurement) VALUES
  ('CC(C)Oc1cc(Nc2nc(N[C@@H](C)c3ccc(F)cn3)ncc2Cl)n[nH]1 [AZ23] + O=C(CCCCCCC(=O)Nc1ccccc1)NO [Vorinostat] (partner 1 µM)', 'NCI-H2085', 0.755),
  ('CC(C)Oc1cc(Nc2nc(N[C@@H](C)c3ccc(F)cn3)ncc2Cl)n[nH]1 [AZ23] + Cc1nc(Nc2ncc(C(=O)Nc3c(C)cccc3Cl)s2)cc(N2CCN(CCO)CC2)n1 [Dasatinib] (partner 0.075 µM)', 'NCI-H2085', 0.199),
  ('CC(C)Oc1cc(Nc2nc(N[C@@H](C)c3ccc(F)cn3)ncc2Cl)n[nH]1 [AZ23] + CS(=O)(=O)N1CCN(Cc2cc3nc(-c4cccc5[nH]ncc45)nc(N4CCOCC4)c3s2)CC1 [Pictilisib] (partner 1 µM)', 'NCI-H2085', 0.446),
  ('CC(C)Oc1cc(Nc2nc(N[C@@H](C)c3ccc(F)cn3)ncc2Cl)n[nH]1 [AZ23] + CC(=O)c1c(C)c2cnc(Nc3ccc(N4CCNCC4)cn3)nc2n(C2CCCC2)c1=O [Palbociclib] (partner 0.5 µM)', 'NCI-H2085', 0.435),
  ('CC(C)Oc1cc(Nc2nc(N[C@@H](C)c3ccc(F)cn3)ncc2Cl)n[nH]1 [AZ23] + CCNC(=O)c1noc(-c2cc(C(C)C)c(O)cc2O)c1-c1ccc(CN2CCOCC2)cc1 [Luminespib] (partner 0.01 µM)', 'NCI-H2085', 0.463);
